# Tested on: rat blood pressure
# test-name: effects on blood pressure in the anesthetized rat (RBP), intraaortic and intravenous bolus
# Assay type: in vivo
# measurement-parameters: rat, in vivo, iv
# Description: The in vivo effects of bradykinin antagonists on blood pressure in the anesthetized rat are determined according to the assay described by Roblero, Ryan and Stewart (Res. Commun. Pathol. Pharmacol. 6:207, 1973). The antagonists also produce inhibition of the bradykinin response when injected as a bolus admixture of bradykinin plus antagonist by either the ia or iv route of administration.
Square brackets hold non-standard residues; d marks the D form. Peptide text beside a SMILES is read from it. 2Thi = N[C@@H](Cc1cccs1)C(=O)O
measured-property: RBP-IV: agonist potency as percent of BK potency (%)

>>> value_reported("N=C(N)NCCC[C@H](NC(=O)[C@H](CCCCN)NC(=O)[C@@H](N)CCCCN)C(=O)N1CCC[C@H]1C(=O)N1CCC[C@H]1C(=O)NCC(=O)N[C@@H](Cc1cccs1)C(=O)N[C@@H](CO)C(=O)N[C@H](Cc1ccccc1)C(=O)N[C@@H](Cc1cccs1)C(=O)N[C@H](CCCNC(=N)N)C(=O)O [Example 44] (H-KKRPPG[2Thi]S[dF][2Thi][dR]-OH)")
14
>>> value_reported("N=C(N)NCCC[C@H](N)C(=O)N1CCC[C@H]1C(=O)N1CCC[C@H]1C(=O)NCC(=O)N[C@@H](Cc1cccs1)C(=O)N[C@@H](CO)C(=O)N[C@H](Cc1ccccc1)C(=O)N[C@@H](Cc1cccs1)C(=O)N[C@H](CCCNC(=N)N)C(=O)O [Example 41, Arg-Pro-Pro-Gly-Thi-Ser-DPhe-Thi-DArg] (H-RPPG[2Thi]S[dF][2Thi][dR]-OH)")
0.6
>>> value_reported("N=C(N)NCCC[C@H](N)C(=O)N1CCC[C@H]1C(=O)N1CCC[C@H]1C(=O)NCC(=O)N[C@@H](Cc1cccs1)C(=O)N[C@@H](CO)C(=O)N[C@H](Cc1ccccc1)C(=O)N[C@@H](Cc1cccs1)C(=O)N[C@H](CCCNC(=N)N)C(N)=O [Example 55] (H-RPPG[2Thi]S[dF][2Thi][dR]-NH2)")
0.9
>>> value_reported("N=C(N)NCCC[C@H](NC(=O)[C@H](Cc1cccs1)NC(=O)[C@@H](Cc1ccccc1)NC(=O)[C@H](CO)NC(=O)[C@H](Cc1cccs1)NC(=O)CNC(=O)[C@@H]1CCCN1C(=O)[C@@H]1CCCN1C(=O)[C@@H](N)CCCNC(=N)N)C(N)=O [Example 51, Arg-Pro-Pro-Gly-Thi-Ser-DPhe-Thi-Arg-NH2] (H-RPPG[2Thi]S[dF][2Thi]R-NH2)")
2
>>> value_reported("N=C(N)NCCC[C@H](NC(=O)[C@H](CCCCN)NC(=O)[C@@H](N)CCCCN)C(=O)N1CCC[C@H]1C(=O)N1CCC[C@H]1C(=O)NCC(=O)N[C@@H](Cc1cccs1)C(=O)N[C@@H](CO)C(=O)N[C@H](Cc1ccccc1)C(=O)N[C@@H](Cc1cccs1)C(=O)N[C@H](CCCNC(=N)N)C(N)=O [Example 58] (H-KKRPPG[2Thi]S[dF][2Thi][dR]-NH2)")
3

These data points were gathered from patent US4923963A.
